# Target system: PDE4B enzyme (Homo sapiens (Human), UniProt Q07343)
# Sequence (Q07343 whole entry): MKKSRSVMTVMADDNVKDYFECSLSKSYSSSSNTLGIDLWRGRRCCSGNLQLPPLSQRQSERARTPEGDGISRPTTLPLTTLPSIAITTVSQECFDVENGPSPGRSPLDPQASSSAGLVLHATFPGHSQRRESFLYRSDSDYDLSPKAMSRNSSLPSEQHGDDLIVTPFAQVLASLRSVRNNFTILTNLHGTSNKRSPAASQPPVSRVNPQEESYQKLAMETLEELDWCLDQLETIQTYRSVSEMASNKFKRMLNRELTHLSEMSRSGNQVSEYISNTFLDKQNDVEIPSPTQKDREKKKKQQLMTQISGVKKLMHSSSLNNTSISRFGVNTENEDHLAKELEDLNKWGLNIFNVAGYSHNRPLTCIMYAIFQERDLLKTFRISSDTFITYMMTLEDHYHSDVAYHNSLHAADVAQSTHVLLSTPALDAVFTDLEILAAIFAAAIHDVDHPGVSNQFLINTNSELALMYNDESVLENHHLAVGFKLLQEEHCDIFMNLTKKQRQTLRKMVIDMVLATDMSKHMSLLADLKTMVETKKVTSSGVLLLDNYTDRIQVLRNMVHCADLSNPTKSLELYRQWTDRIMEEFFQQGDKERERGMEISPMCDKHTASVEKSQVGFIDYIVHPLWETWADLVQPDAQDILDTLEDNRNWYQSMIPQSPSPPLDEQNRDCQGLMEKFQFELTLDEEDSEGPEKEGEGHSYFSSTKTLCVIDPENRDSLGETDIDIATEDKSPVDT
# Procedure details: PDE4B inhibitory activity, LANCE Ultra cAMP assay
# Condition: 50% inhibition from cAMP to 5′AMP
Quantity kind: IC50 (nM)

A selection of reference data follows.
# Compound, IC50 (nM)
rows = [
    ("CCN(CC)C(=O)c1cnc(C(F)(F)F)nc1-c1ccc(OC)c(OC)c1 [Example 13]", 833),
    ("O=C(NCCc1c[nH]c2ccccc12)c1cnc(C(F)(F)F)nc1N1CCOCC1 [Example 24]", 469),
    ("COc1ccc(CNC(=O)c2cnc(C(F)(F)F)nc2N2CCOCC2)c(OC)c1 [Example 8]", 74),
    ("COc1ccc(-c2nc(C(F)(F)F)ncc2C(=O)NC2CC2)cc1OC [Example 15]", 252),
    ("CSc1ncc(C(=O)NCCc2c[nH]c3ccccc23)c(N2CCOCC2)n1 [Example 4]", 166),
    ("COc1ccc(-c2nc(SC)ncc2C(=O)Nc2ccncc2)cc1OC [Example 3]", 95),
]

I. COc1ccc(NC(=O)c2cnc(C(F)(F)F)nc2-c2ccc(OC)c(OC)c2)cc1OC [Example 30]
II. COc1ccc(-c2nc(C(F)(F)F)ncc2C(=O)NC2CCOCC2)cc1OC [Example 12]
Q) // max by IC50 over [ I , II ] Lab note: record the label of whichever item you select.
A) II
(II: 266 nM, I: 61 nM)

1. COc1ccc(-c2nc(C(F)(F)F)ncc2C(=O)Nc2c(Cl)cncc2Cl)cc1OC [Example 16]
2. COc1ccc(-c2nc(SC)ncc2C(=O)Nc2c(Cl)cncc2Cl)cc1OC [Example 2]
3. COc1ccc(-c2nc(SC)ncc2C(=O)Nc2cc(C(C)C)c(N)c(C(C)C)c2)cc1OC [Example 20]
4. COc1ccc(NC(=O)c2cnc(C(F)(F)F)nc2N2CCOCC2)cc1OC [Example 11]
Q) Put the items in sequence by IC50, from largest down. Kindly provide the labels arranged according to the requested ordering.
A) 3, 2, 4, 1
(3: 745 nM, 2: 178 nM, 4: 67 nM, 1: 44 nM)

1. COc1ccc(-c2nc(S(C)(=O)=O)ncc2C(=O)NC2CC2)cc1OC [Example 19]
2. COc1ccc(NC(=O)c2cnc(SC)nc2N2CCOCC2)cc1OC [Example 1]
Q) // max by IC50 over [ 1 , 2 ] Lab note: record the label of whichever item you select.
A) 1

Taken from patent US12441690B2.
